FYI, the data here is from patent US20230109275A1.

target: T1, TRBC1 (T cell receptor beta-chain constant domain 1), interaction partner protein injected in SPR (human, UniProt P01850 1-129, limits assumed); assay: SPR (Biacore T200), antibody captured on anti-human IgG chip, TRBC1 injected, 25 C, 1:1 Langmuir fit
T1 construct: also called TCR beta constant region 1
T1 sequence (P01850 1-129 limits assumed): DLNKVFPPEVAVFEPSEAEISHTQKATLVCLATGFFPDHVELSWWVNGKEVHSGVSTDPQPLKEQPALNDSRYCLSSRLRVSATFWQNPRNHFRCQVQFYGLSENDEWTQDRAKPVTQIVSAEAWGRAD
observable: koff

- Mut12 (antibody, V domains shown, Variant of hJOVI-1; captured by anti-human IgG in SPR; also called VH T28K, Y32F, A100N, N103L; VL N35K) VH: QVQLVQSGAEVKKPGASVKVSCKASGYKFTGFVMHWVRQAPGQGLEWMGFINPYNDDIQSNERFRGRVTMTRDTSISTAYMELSRLRSDDTAVYYCARGNGYLFDGAYRFFDFWGQGTMVTVSS VL: DIVMTQSPLSLPVTPGEPASISCRSSQRLVHSNGKTYLHWYLQKPGQSPRLLIYRVSNRFPGVPDRFSGSGSGTDFTLKISRVEAEDVGVYYCSQSTHVPYTFGQGTKLEIK: 0.0613 s⁻¹

Okay, now this binder:
Kindly note the recorded koff for Mut9 (antibody, V domains shown, Variant of hJOVI-1; captured by anti-human IgG in SPR; also called VH G26P, T28K) VH: QVQLVQSGAEVKKPGASVKVSCKASPYKFTGYVMHWVRQAPGQGLEWMGFINPYNDDIQSNERFRGRVTMTRDTSISTAYMELSRLRSDDTAVYYCARGAGYNFDGAYRFFDFWGQGTMVTVSS VL: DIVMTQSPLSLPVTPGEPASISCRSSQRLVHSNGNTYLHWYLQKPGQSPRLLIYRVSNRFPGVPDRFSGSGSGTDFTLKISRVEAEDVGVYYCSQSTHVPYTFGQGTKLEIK , which is 0.00248 s⁻¹
